Each recorded value in this set is attributed to patent US11827645B2.

tested on: human pancreatic cell lines PANC; experiment: MTT assay of cancer cell viability, PANC cells; assay type: cell-based; settings: human pancreatic cell lines PANC
pIC50: −log10 of the molar value.
value kind: pIC50

• Cc1cccc(C)c1N1C(=O)C2(C=CC(=O)N2c2ccc(CNC(=O)OC(C)(C)C)cc2)C2C(=O)c3ccccc3OC21 (stereo not shown) = 7.04
